assay endpoint: melting point

What does the record list as melting point for "CS(=O)(=O)Nc1cc([C@@H](O)CNC2CCN(c3ccc(CCC(=O)O)cc3)CC2)ccc1O" ?
130 to 133 °C

Next:
What does the record list as melting point for "O=C(O)[C@@H](CCN1C(=O)c2ccccc2C1=O)Oc1c(Br)cc(-c2c3ccccc3cc3sc4ccccc4c23)cc1Br" ?
222 to 223 °C

What does the record list as melting point for "CS(=O)(=O)N1Cc2ccccc2C1" ?
131 to 132 °C

What does the record list as melting point for CC(C)(C)OC(=O)c1ncn2c1C1CCCN1C(=O)c1ncccc1-2 (stereo not given) ?
230 to 231 °C

What does the record list as melting point for "COCCNc1c([N+](=O)[O-])cc(C(F)(F)F)c2sc(=O)sc12" ?
96 to 98 °C

* * *

// melting point lookup, one value per entry

What does the record list as melting point for CC1(OCc2ccccc2F)COC(c2ccco2)OC1 (stereo not given) ?
67.5 to 69 °C

Next:
What does the record list as melting point for "COC(=O)N(C)CCCC(=O)OC[C@@H]1CC(c2ccc(-c3ccc(N4C[C@H](Cn5ccnn5)OC4=O)cc3F)cn2)=NO1" ?
135 °C

What does the record list as melting point for "CCOC(=O)c1[nH]c2ccccc2c1Br" ?
150 to 152 °C

What does the record list as melting point for "CC(C)[C@H](NC(=O)CNC(=O)OCC1c2ccccc2-c2ccccc21)C(=O)O" ?
69 to 71 °C

What does the record list as melting point for "c1ccc(-c2ncnc3sc4c(c23)CCCC4)cc1" ?
135 to 137 °C

What does the record list as melting point for "COc1ccc(F)cc1C1CC(=O)CC(=O)C1" ?
160 to 161 °C

What does the record list as melting point for C=CCSC1(C(F)(F)F)CN(C2CC2)C(=O)Nc2ccc(Cl)cc21 (stereo not given) ?
144 to 146 °C

What does the record list as melting point for "Cc1ccc(C(=O)NC(C)C)c(Nc2ccc3cn[nH]c3c2)n1" ?
212 to 214 °C

What does the record list as melting point for CC(=O)Nc1ccc(S(=O)c2ccc(Cl)cc2)cc1 (stereo not given) ?
160 to 162 °C

What does the record list as melting point for "O=C(COc1cccnc1)C12CC3CC(CC(C3)C1)C2" ?
73 to 75 °C

* * *

// melting point lookup, one value per entry

// below: answered molecules
What does the record list as melting point for "O=c1[nH]c2ccc(CCBr)cc2o1" ?
148 to 151 °C

What does the record list as melting point for "COC(=O)Nc1cc(N2CC=CCC2)nc2nc(=O)on12" ?
213 to 214 °C

What does the record list as melting point for O=C(NC1CCc2ccccc21)c1ccc2cnccc2n1 (stereo unspecified) ?
156 to 157 °C

What does the record list as melting point for "Cc1ccc(-c2[nH]nc(CO)c2-c2ccc(S(N)(=O)=O)cc2)cc1" ?
130 °C

What does the record list as melting point for "FC(F)(F)c1ccc(Cl)cn1" ?
36 to 37 °C

What does the record list as melting point for OCC1OC(n2cnc3c2ncn2ccnc32)CC1O (stereo unspecified) ?
138 to 141 °C

What does the record list as melting point for "Clc1nc(-n2cnc(-c3ccccc3)c2-c2ccccc2)c2[nH]cnc2n1" ?
278 °C

What does the record list as melting point for CC(Oc1ccc(CNC(=O)c2cccnc2Oc2ccc3c(c2)OCO3)c(F)c1)C(=O)O (stereo unspecified) ?
136 to 138 °C

Next:
What does the record list as melting point for "O=C(C=Cc1cccc(Oc2ccccc2)c1)NCCCCCC(=O)NO" ?
113 to 115 °C

What does the record list as melting point for "C=CCOc1nccnc1Cl" ?
149 to 150 °C

What does the record list as melting point for "CC(C)=NOCc1nc2c(N)nc3cccnc3c2n1CCCNC(=O)C(C)C" ?
195 to 197 °C
